Cited source for all entries: ChEMBL document CHEMBL1201862

# Test system: KM-20L2
# assay details: NCI tumour cell line growth inhibition, 48 h
Active and inactive are the calls of the source. Rule as the data show it: active = GI50 up to about 1.1 µM and inactive = higher.
Exercise: for every item that follows, state its recorded GI50.

In plain terms, C/C(CCN(C)C)=N/O has a documented GI50 of 8.47 µM (inactive)

In plain terms, Nc1c(Cl)ncnc1NCCCCCCCCCCCCNc1ncnc(Cl)c1N has a documented GI50 of 7.11 µM (inactive)

In plain terms, COC(=O)C1C(=O)O[C@@H](c2ccc(OC)cc2)C1C(=O)OC (stereo not given in full) has a documented GI50 of > 100 µM (inactive)

In plain terms, O=C(CCC(=O)C(C(=O)c1ccccc1)c1ccccc1)Nc1cccc(C(F)(F)F)c1 (stereo not given) has a documented GI50 of > 100 µM (inactive)

In plain terms, C/C(=C1/N=C(c2cc([N+](=O)[O-])ccc2Cl)N(c2ccc(Br)cc2)C1=O)c1cc2ccccc2oc1=O has a documented GI50 of 17.6 µM (inactive)

====

# System: EKVX
# assay details: NCI tumour cell line growth inhibition, 48 h
The source made the active and inactive calls. No stated cut-off is given here; in the data, active = GI50 up to about 1.1 µM and inactive = higher.
// one of YES for active, NO for inactive, no free text

Please share the test call associated with COC(=O)/N=[N+](\[O-])C(c1ccc(Cl)cc1)c1ccc(Cl)cc1 .
NO

Please share the test call associated with Cc1ccc(S(=O)(=O)N2CC(CCN)c3ccccc32)cc1 (configuration not stated) .
NO

Please share the test call associated with COc1cc2c(cc1OC)-c1cc3ccccc3c(=O)n1CC2 .
NO

Please share the test call associated with Cc1nc2c(n1CCC(C)C)C(=O)c1ccccc1C2=O .
NO

Please share the test call associated with Cc1cccc2c1C/C(=C\c1cccc(C)c1C(=O)O)C2=O .
NO

Please share the test call associated with Fc1cc(-c2cc(-c3ccccc3)n[nH]2)c(Cl)cc1Cl .
NO

Please share the test call associated with COCOCc1cc(OCc2ccccc2)c(OC)cc1Br .
NO

Please share the test call associated with CC(C)NC(=O)O/N=C1\CCC2[C@@H]3CC=C4C[C@@H](OC(=O)NC(C)C)CC[C@]4(C)C3CC[C@]12C (some centres not stated) .
NO

Please share the test call associated with CC1(C)OC2C(CO)OC(n3cnc(N)nc3=O)C2O1 (configuration not stated) .
NO

Please share the test call associated with Nc1ccc2c(c1)C1Oc3ccccc3CC1CO2 (configuration not stated) .
NO

Please share the test call associated with CC1C(=O)CCC1C(Sc1ccccc1)(Sc1ccccc1)Sc1ccccc1 (configuration not stated) .
NO

Please share the test call associated with C=CC1=CC(C)C[C@]1(O)C(=O)OC (some centres not stated) .
YES

====

# Test system: SF-539
# assay details: NCI tumour cell line growth inhibition, 48 h
Activity calls are given as the source filed them. No stated cut-off is given here; in the data, active = GI50 up to about 1.1 µM and inactive = higher.
Exercise: for every item that follows, state its recorded GI50.

In plain terms, CC1CCc2c(c(CC3CC(=O)NC(=O)C3)nn2-c2ccccc2)C1 (stereo unspecified) has a documented GI50 of > 100 µM (inactive)

In plain terms, Cc1ccc(/C(O)=C/c2nc3ccccc3oc2=O)cc1 has a documented GI50 of > 100 µM (inactive)

In plain terms, Cc1cc2nc3c(C#N)c(-c4ccccc4)cc(Nc4ccc(Cl)cc4)n3c2cc1C has a documented GI50 of > 100 µM (inactive)

In plain terms, C=CCCCCCCCCC(=O)ON(Cc1ccc(O)c(OC)c1)C(=O)C(F)(F)F has a documented GI50 of > 100 µM (inactive)

In plain terms, O=C1OC(C(O)C(O)C(O)CO)C(O)C1O (stereo unspecified) has a documented GI50 of > 100 µM (inactive)

In plain terms, COC(=O)C1C(=O)O[C@@H](c2ccc(OC)cc2)C1C(=O)OC (stereo partly specified) has a documented GI50 of > 100 µM (inactive)

In plain terms, Nc1nc(O)c2ncn(C3C=CC(CO)C3)c2n1 (stereo unspecified) has a documented GI50 of > 100 µM (inactive)

In plain terms, O=c1c2cc(Br)cc(Br)c2[nH]c(=S)n1-c1ccccc1 has a documented GI50 of 83 µM (inactive)

In plain terms, O=C1c2ccccc2C(=O)c2c1ccc1nc3c(nc21)-c1c2ccccc2cc2cccc-3c12 has a documented GI50 of 21.4 µM (inactive)

In plain terms, Cc1nn(C(=O)c2ccccc2O)c2c1C(c1ccc(O)cc1O)SC(=N)N2 (stereo unspecified) has a documented GI50 of 3.77 µM (inactive)

In plain terms, C=C(C)C1CC(=O)C(C)=C(O)C1 (stereo unspecified) has a documented GI50 of > 100 µM (inactive)
